tested on: Enterococcus faecium 9; assay: microbe, parasite or virus in culture; design: CLSI broth microdilution MIC in MHB-II; details: Enterococcus faecium, 9, 18 h, read-out: MIC
recorded.endpoint: MIC (µg/mL)
Entry rule: numbers only, all in µg/mL.

Qu. Looking for the measured MIC of CCCCCCCCCCCCCCCC(=O)N[C@@H](CCCCN)C(=O)NCc1cccc(CN[C@H](C(=O)O)[C@H](O[C@@H]2O[C@H](CN)[C@@H](O)[C@H]2O)[C@H]2O[C@@H](n3ccc(=O)[nH]c3=O)[C@H](O)[C@@H]2O)c1 [compound 2, analogue 2] , can you help?
Ans. 0.5

Qu. Try the compound CCCCCCCCCCCCCCCC(=O)N[C@@H](CCCNC(=N)N)C(=O)Nc1cccc(CN[C@H](C(=O)O)[C@H](O[C@@H]2O[C@H](CN)[C@@H](O)[C@H]2O)[C@H]2O[C@@H](n3ccc(=O)[nH]c3=O)[C@H](O)[C@@H]2O)c1 [compound 8, analogue 8]
Ans. 1

Qu. Try the compound CCCCCCCCCCCCCCCC(=O)N[C@@H](CCCCN)C(=O)Nc1ccc(CN[C@H](C(=O)O)[C@H](O[C@@H]2O[C@H](CN)[C@@H](O)[C@H]2O)[C@H]2O[C@@H](n3ccc(=O)[nH]c3=O)[C@H](O)[C@@H]2O)cc1 [compound 5, analogue 5]
Ans. 0.25

Qu. Try the compound CN[C@H](CC(C)C)C(=O)N[C@H]1C(=O)N[C@@H](CC(N)=O)C(=O)N[C@H]2C(=O)N[C@H]3C(=O)N[C@H](C(=O)N[C@H](C(=O)O)c4cc(O)cc(O)c4-c4cc3ccc4O)[C@H](O)c3ccc(c(Cl)c3)Oc3cc2cc(c3O[C@@H]2O[C@H](CO)[C@@H](O)[C@H](O)[C@H]2O[C@H]2C[C@](C)(N)[C@H](O)[C@H](C)O2)Oc2ccc(cc2Cl)[C@H]1O [vancomycin]
Ans. 1

Qu. Try the compound CCCCCCCCCCCCCCCC(=O)N[C@@H](CCCNC(=N)N)C(=O)NCc1cccc(CN[C@H](C(=O)O)[C@H](O[C@@H]2O[C@H](CN)[C@@H](O)[C@H]2O)[C@H]2O[C@@H](n3ccc(=O)[nH]c3=O)[C@H](O)[C@@H]2O)c1 [compound 4, analogue 4]
Ans. 0.5

Qu. Try the compound CCCCCCCCCCCCCCCC(=O)N[C@@H](CCCNC(=N)N)C(=O)NCc1ccc(CN[C@H](C(=O)O)[C@H](O[C@@H]2O[C@H](CN)[C@@H](O)[C@H]2O)[C@H]2O[C@@H](n3ccc(=O)[nH]c3=O)[C@H](O)[C@@H]2O)cc1 [compound 3, analogue 3]
Ans. 0.5

---

Experiment: in vitro
Design: WST-8 cell viability assay in HepG2 cells
Details: human, hepg2 cells; read-out: IC50
Procedure: Cells were regularly passed to maintain exponential growth. HepG2 cells were sowed by 1.0 × 10^4 cells for each well in 96-well plate and cultured at 37 °C under 5% CO2 in air for 24 h. The cells were treated with a solution of test compounds in DMSO at various concentration and incubated at 37 °C under 5% CO2 in air for 24 h. After that, the WST-8 (Dojindo) cell proliferation assay was used. […]
recorded.endpoint: CC50 at 24 h (µM)
Entry rule: numbers only, all in µM.

[[record]]
structure_string = "CCCCCCCCCCCCCCCC(=O)N[C@@H](CCCNC(=N)N)C(=O)Nc1cccc(CN[C@H](C(=O)O)[C@H](O[C@@H]2O[C@H](CN)[C@@H](O)[C@H]2O)[C@H]2O[C@@H](n3ccc(=O)[nH]c3=O)[C@H](O)[C@@H]2O)c1"
uom = "µM"
numeric_readout = 23


Qu. Looking for the measured CC50 at 24 h of CCCCCCCCCCCCCCCC(=O)N[C@@H](CCCCN)C(=O)NCc1cccc(CN[C@H](C(=O)O)[C@H](O[C@@H]2O[C@H](CN)[C@@H](O)[C@H]2O)[C@H]2O[C@@H](n3ccc(=O)[nH]c3=O)[C@H](O)[C@@H]2O)c1 , can you help?
Ans. 16

Qu. Try the molecule CCCCCCCCCCCCCCCC(=O)N[C@@H](CCCNC(=N)N)C(=O)Nc1ccc(CN[C@H](C(=O)O)[C@H](O[C@@H]2O[C@H](CN)[C@@H](O)[C@H]2O)[C@H]2O[C@@H](n3ccc(=O)[nH]c3=O)[C@H](O)[C@@H]2O)cc1
Ans. 25

Qu. Try the molecule CCCCCCCCCCCCCCCC(=O)N[C@@H](CCCCN)C(=O)Nc1ccc(CN[C@H](C(=O)O)[C@H](O[C@@H]2O[C@H](CN)[C@@H](O)[C@H]2O)[C@H]2O[C@@H](n3ccc(=O)[nH]c3=O)[C@H](O)[C@@H]2O)cc1
Ans. 22
